target: Homeobox protein Hox-A13 (Mus musculus); experiment: disruptors of Hoxa13 oligonucleotide interaction – biochemical, fluorescence polarization, labeled oligonucleotide, primary screen (AID 1185); conditions: Hoxa13:DNA binding, 15 min, higher = more signal, called active from +8 up or from −8 down
Value type: z-score
Answers are plain numbers.

Please review the following examples before continuing.
{"Molecule": "C=CC[C@]1(C(N)=O)COC(c2ccc(OCCCO)cc2)=N1", "Experimental system": "Homeobox protein Hox-A13 (Mus musculus)", "z-score": -0.063}
{"Molecule": "O=C1OCCC/C=C\\[C@H]2OC34C=CCN(c5ccc6ccccc6c5)C(=O)[C@H]3N(CCCCCO)C(=O)[C@@H]4C12 (stereo partly drawn)", "Experimental system": "Homeobox protein Hox-A13 (Mus musculus)", "z-score": -4.94}
{"Molecule": "COc1ccc([Si](C)(C)[C@H]2[C@H](CC(=O)N3CCC[C@H]3CO)O[C@@]3(C(=O)N(Cc4cccc(N5CCOC5=O)c4)c4ccccc43)[C@@H]2C)cc1", "Experimental system": "Homeobox protein Hox-A13 (Mus musculus)", "z-score": -4.71}
{"Molecule": "C=CC[C@]12N=C(c3ccc(OCCCO)cc3)O[C@H]1c1ccccc1N(CCS(=O)(=O)c1ccccc1)C2=O", "Experimental system": "Homeobox protein Hox-A13 (Mus musculus)", "z-score": -2.59}
{"Molecule": "CCOC(=O)C1=CC[C@@H](c2ccc(C(F)(F)F)cc2)N(S(=O)(=O)c2ccc(C)cc2)[C@H]1c1ccccc1", "Experimental system": "Homeobox protein Hox-A13 (Mus musculus)", "z-score": 0.759}
{"Molecule": "C[N+](C)(C)CCCCCCNC(=O)[C@H]1C[C@H]2C(=O)N[C@@H](Cc3ccccc3)C(=O)N2[C@H]1c1cccc(OCCO)c1", "Experimental system": "Homeobox protein Hox-A13 (Mus musculus)", "z-score": -5.91}
{"Molecule": "C=CCNC(=O)[C@H]1[C@@H]2C(=O)O[C@@H](c3ccccc3)[C@@H](c3ccccc3)N2[C@@H](c2ccc(O)cc2)[C@]12C(=O)Nc1ccc(C#CCCO)cc12", "Experimental system": "Homeobox protein Hox-A13 (Mus musculus)", "z-score": -4.04}

Ask: Quote z-score reported for CC[C@@H]1C=C(C(=O)O)[C@H](c2cccc3ccccc23)N1S(=O)(=O)c1ccc(C)cc1 please.
Reply: -1.85
